Entries and their measured phosphorylation enrichment follow.
Target: Fes (UniProt P07332)
Sequence (P07332 whole entry, looked up): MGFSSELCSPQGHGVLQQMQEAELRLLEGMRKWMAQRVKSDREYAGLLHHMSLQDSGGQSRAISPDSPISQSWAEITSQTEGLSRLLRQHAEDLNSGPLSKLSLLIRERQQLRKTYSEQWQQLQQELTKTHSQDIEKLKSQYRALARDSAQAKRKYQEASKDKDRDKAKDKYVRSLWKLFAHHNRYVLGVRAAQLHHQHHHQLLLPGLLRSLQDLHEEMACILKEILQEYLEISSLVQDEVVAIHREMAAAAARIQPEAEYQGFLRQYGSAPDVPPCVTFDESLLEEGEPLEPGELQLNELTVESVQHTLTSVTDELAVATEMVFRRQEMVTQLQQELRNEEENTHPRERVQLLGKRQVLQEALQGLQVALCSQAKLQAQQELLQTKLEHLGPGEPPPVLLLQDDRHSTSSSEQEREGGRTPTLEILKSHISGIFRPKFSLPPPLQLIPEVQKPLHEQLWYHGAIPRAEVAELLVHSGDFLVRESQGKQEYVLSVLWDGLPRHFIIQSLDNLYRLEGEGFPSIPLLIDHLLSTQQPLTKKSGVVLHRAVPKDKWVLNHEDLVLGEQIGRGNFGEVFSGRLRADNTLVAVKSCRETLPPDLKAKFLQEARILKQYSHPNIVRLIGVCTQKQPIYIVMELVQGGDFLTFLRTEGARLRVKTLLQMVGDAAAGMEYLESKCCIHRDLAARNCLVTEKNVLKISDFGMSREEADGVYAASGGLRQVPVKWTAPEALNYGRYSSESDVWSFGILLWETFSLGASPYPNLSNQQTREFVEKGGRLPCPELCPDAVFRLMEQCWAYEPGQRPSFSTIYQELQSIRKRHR
Assay: phosphorylation enrichment, bacterial display (enrichment ratio); higher = better substrate or ligand; peptides without Tyr show the background;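 also: 11-residue human phosphosite peptides and single-mutation variants displayed on the E. coli surface, counted by deep sequencing, each peptide's frequency after selection divided by its frequency in the unselected input library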;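 also: frequency after pTyr selection over input frequency; kinase dosed for 20-30% of maximal phosphorylation in three min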

{"SEQUENCE_CONTENT": "AAVDEYLEFRR [FAM221A_Y17_YF]", "TARGET_OR_SYSTEM": "Fes (UniProt P07332)", "phosphorylation enrichment": 0.963}
{"SEQUENCE_CONTENT": "GRGMPYGGRGD [TGM1_Y312_R307G]", "TARGET_OR_SYSTEM": "Fes (UniProt P07332)", "phosphorylation enrichment": 0.476}
{"SEQUENCE_CONTENT": "RFLRGYRQDAY [HLA-A_Y137]", "TARGET_OR_SYSTEM": "Fes (UniProt P07332)", "phosphorylation enrichment": 0.827}
{"SEQUENCE_CONTENT": "PKEEPYQMQEK [SLC5A3_Y565]", "TARGET_OR_SYSTEM": "Fes (UniProt P07332)", "phosphorylation enrichment": 1.92}
{"SEQUENCE_CONTENT": "RREWYYEVIIA [BACE1_Y260_V265A]", "TARGET_OR_SYSTEM": "Fes (UniProt P07332)", "phosphorylation enrichment": 0.733}
{"SEQUENCE_CONTENT": "YLELNYKEDEY [MME_Y502]", "TARGET_OR_SYSTEM": "Fes (UniProt P07332)", "phosphorylation enrichment": 1.43}
{"SEQUENCE_CONTENT": "TNFPLYLRSLE [MTM1_Y71_R69P_YF]", "TARGET_OR_SYSTEM": "Fes (UniProt P07332)", "phosphorylation enrichment": 0.761}
{"SEQUENCE_CONTENT": "VFAPDYIAGVS [NOB1_Y366]", "TARGET_OR_SYSTEM": "Fes (UniProt P07332)", "phosphorylation enrichment": 1.38}
{"SEQUENCE_CONTENT": "KSVVTYSPTTG [ITGB3BP_Y32_I30V]", "TARGET_OR_SYSTEM": "Fes (UniProt P07332)", "phosphorylation enrichment": 0.527}
{"SEQUENCE_CONTENT": "VILENYGADID [DNAH5_Y596_L591V]", "TARGET_OR_SYSTEM": "Fes (UniProt P07332)", "phosphorylation enrichment": 1.11}
{"SEQUENCE_CONTENT": "CTTNHYNYMCN [TP53_Y234_I232N]", "TARGET_OR_SYSTEM": "Fes (UniProt P07332)", "phosphorylation enrichment": 0.712}
{"SEQUENCE_CONTENT": "TIQIMYGCDVG [HLA-A_Y123]", "TARGET_OR_SYSTEM": "Fes (UniProt P07332)", "phosphorylation enrichment": 1.43}
{"SEQUENCE_CONTENT": "KFVKMYDNHQL [MYO9A_Y203_YF]", "TARGET_OR_SYSTEM": "Fes (UniProt P07332)", "phosphorylation enrichment": 0.572}
{"SEQUENCE_CONTENT": "SSMNDYNPLEK [MYOC_Y479_I477N]", "TARGET_OR_SYSTEM": "Fes (UniProt P07332)", "phosphorylation enrichment": 0.977}
{"SEQUENCE_CONTENT": "ILDEAYVMAIV [EGFR_Y764_S768I]", "TARGET_OR_SYSTEM": "Fes (UniProt P07332)", "phosphorylation enrichment": 1.35}
{"SEQUENCE_CONTENT": "VNFDYYTVNLG [GFPT1_Y367_D366Y]", "TARGET_OR_SYSTEM": "Fes (UniProt P07332)", "phosphorylation enrichment": 1.25}
{"SEQUENCE_CONTENT": "QQLQGYVPSNF [FRK_Y99_I100V_YF]", "TARGET_OR_SYSTEM": "Fes (UniProt P07332)", "phosphorylation enrichment": 1.07}
{"SEQUENCE_CONTENT": "PSALGYSPSLH [LLGL2_Y40_R45H]", "TARGET_OR_SYSTEM": "Fes (UniProt P07332)", "phosphorylation enrichment": 0.823}
{"SEQUENCE_CONTENT": "CTTIDYNYMCN [TP53_Y234_H233D]", "TARGET_OR_SYSTEM": "Fes (UniProt P07332)", "phosphorylation enrichment": 0.93}
{"SEQUENCE_CONTENT": "FADPFYDFEIE [ZC3H18_Y372_YF]", "TARGET_OR_SYSTEM": "Fes (UniProt P07332)", "phosphorylation enrichment": 1.19}
{"SEQUENCE_CONTENT": "CTNIHYNYMCN [TP53_Y234_T231N]", "TARGET_OR_SYSTEM": "Fes (UniProt P07332)", "phosphorylation enrichment": 0.82}
{"SEQUENCE_CONTENT": "EWKNNYPRLRE [OPA1_Y582]", "TARGET_OR_SYSTEM": "Fes (UniProt P07332)", "phosphorylation enrichment": 0.607}
{"SEQUENCE_CONTENT": "FLENFYDLKKD [MMP3_Y42_YF]", "TARGET_OR_SYSTEM": "Fes (UniProt P07332)", "phosphorylation enrichment": 1.02}
{"SEQUENCE_CONTENT": "KLVQLYGVCTK [BTK_Y461]", "TARGET_OR_SYSTEM": "Fes (UniProt P07332)", "phosphorylation enrichment": 0.887}
{"SEQUENCE_CONTENT": "VDGSVYELHPS [GCK_Y413_K414E]", "TARGET_OR_SYSTEM": "Fes (UniProt P07332)", "phosphorylation enrichment": 1.09}
{"SEQUENCE_CONTENT": "KACKHYLTKRT [ZBTB5_Y118_T121K]", "TARGET_OR_SYSTEM": "Fes (UniProt P07332)", "phosphorylation enrichment": 1.17}
{"SEQUENCE_CONTENT": "HKLSFNEFDFE [BTK_Y40_Y40N_YF]", "TARGET_OR_SYSTEM": "Fes (UniProt P07332)", "phosphorylation enrichment": 1.58}
{"SEQUENCE_CONTENT": "TFMKQYPKVFL [CNBD1_Y70]", "TARGET_OR_SYSTEM": "Fes (UniProt P07332)", "phosphorylation enrichment": 1.09}
{"SEQUENCE_CONTENT": "IIGNGYFFHVF [MYBPC3_Y1135_R1138H_YF]", "TARGET_OR_SYSTEM": "Fes (UniProt P07332)", "phosphorylation enrichment": 1.09}
